assay: chemical genetic growth profiling, strain panel (AID 1159580);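 note: tested at 20 µM; growth read once vehicle control cultures reached saturation at 30 °C; 1 = growth at the plate median or of vehicle wells; lower values mean less growth of the strain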; details: S. cerevisiae deletion strains, growth OD, locus YLR039C, strain RIC1, active compounds read low
In all, about 5,500 compounds went through this assay and about 2,000 (36%) were called active. Another 18% or so got no clear call; they are omitted. This is one part of the list.
normalized growth: recorded values
Simply state the number, no unit and no words.

Consider the following illustrative entries.
NC(N)=NC(=O)c1nc(Cl)c(N)nc1N :: 1.31
COc1ccccc1/C=C\C(=O)O :: 1.22
CC(C)[N+](C)(CCC(C(N)=O)(c1ccccc1)c1ccccc1)C(C)C :: 1.07
Cc1cc(OC(=O)c2c(C)cc(O)cc2O)cc(O)c1C(=O)O :: 0.914
CCOC(=O)c1c(C)cc(OC)cc1O :: 0.872

Now take the following compound into account.
Data request, read-out normalized growth, for S=c1nccc(-c2ccc(Cl)cc2)[nH]1
1.01
